Reported IC50 for target or system human PDE1B (Homo sapiens (Human), UniProt Q01064), by entry.

Answered examples (2):
Please indicate IC50 recorded for COc1ccc(Cn2c(=O)n3ncnc3c3c4c(sc32)CN(Cc2ccc3c(c2)OC(F)(F)O3)CC4)cc1
100 to 1000 nM

Please indicate IC50 recorded for COc1ccc(Cn2c(=O)n3ncnc3c3cc(CN4CCCCC4)cnc32)cc1
100 to 1000 nM

Consider the additional molecule presented here.
Please indicate IC50 recorded for COc1ccc(Cn2c(=O)n3ncnc3c3cc(N4CCC(N(C)C)C4)cnc32)cc1 (stereo not drawn)
100 to 1000 nM

###

For each record, write down the corresponding PDE1B pIC50.
Target: UniProtKB Q01064
Assay: PDE1B inhibitory assay (IMAP TR-FRET)
Details: negative log of half-maximal molar inhibitory concentration; 200 nM FAM-cAMP, Calmodulin, CaCl2

Answered examples (2):
Please indicate PDE1B pIC50 recorded for COc1ccc(Cn2c(=O)n3ncnc3c3cc(CN4C[C@@H](C)O[C@@H](C)C4)cnc32)c(F)c1 [Example 277]
>7

Please indicate PDE1B pIC50 recorded for C[C@@H]1CN(Cc2cnc3c(c2)c2ncnn2c(=O)n3Cc2ccccc2SC(F)(F)F)C[C@H](C)O1 [Example 293]
<5

Hi there! I need PDE1B pIC50 for each item below, if you can.
1. COc1ccc(Cn2c(=O)n3ncnc3c3cc(-c4ccc(OC)c(OC)c4)cnc32)cc1 [Example 189]
2. COc1ccc(Cn2c(=O)n3ncnc3c3c(C)c(CNCc4cccnc4)sc32)cc1 [Example 52]

>7
>7

###

Target: human PDE1B (Homo sapiens (Human), UniProt Q01064)
Experiment: PDE1B inhibitory assay (IMAP TR-FRET)
Conditions: PDE1B pIC50, negative log of half-maximal molar inhibitory concentration; 200 nM FAM-cAMP, Calmodulin, CaCl2
Experimental endpoint: IC50

Answered examples (6):
Please tell me the measured IC50 for COc1ccc(Cn2c(=O)n3ncnc3c3c(C)c(CN4CCCC4)sc32)cc1 ; system: human PDE1B (Homo sapiens (Human), UniProt Q01064).
0.1 to 1 µM

Please tell me the measured IC50 for CC1(C)Cc2c(sc3c2c2ncnn2c(=O)n3Cc2ccc(Cl)cc2)CO1 ; system: human PDE1B (Homo sapiens (Human), UniProt Q01064).
0.1 to 1 µM

Please tell me the measured IC50 for COc1ccc(Cn2c(=O)n3ncnc3c3cc(-c4c(C)noc4C)sc32)cc1 ; system: human PDE1B (Homo sapiens (Human), UniProt Q01064).
0.1 to 1 µM

Please tell me the measured IC50 for COc1ccc(Cn2c(=O)n3ncnc3c3ccc(CN4CCOCC4)nc32)cc1 ; system: human PDE1B (Homo sapiens (Human), UniProt Q01064).
1 to 10 µM

Please tell me the measured IC50 for COc1ccc(Cn2c(=O)n3ncnc3c3cc(CN4C[C@@H](C)O[C@@H](C)C4)cnc32)c(Cl)c1 ; system: human PDE1B (Homo sapiens (Human), UniProt Q01064).
0.1 to 1 µM

Please tell me the measured IC50 for C[C@@H]1CN(Cc2cnc3c(c2)c2ncnn2c(=O)n3Cc2ccc(F)c(Cl)c2)C[C@H](C)O1 ; system: human PDE1B (Homo sapiens (Human), UniProt Q01064).
0.1 to 1 µM

Hi there! I need IC50 for each item below, if you can.
1. COc1ccc(Cn2c(=O)n3ncnc3c3cc(CO)cnc32)cc1
2. COc1ccc(Cn2c(=O)n3ncnc3c3cc(N(C)CCCN(C)C)cnc32)cc1

1: 0.1 to 1 µM; 2: 1 to 10 µM

Source of measurements: patent US10105367B2
